Target: canine FcRn (FcRn large subunit with canine beta-2-microglobulin) (canine)
Assay: SPR pH 5.5, SASA-Fc captured on BSA, FcRn 100-800 nM
observationType: Kd (µM)
Quick reminder: number only, in µM, skip the unit.

[
  {
    "binder": "canine IgGB Fc (CH2-CH3) N434H with N-terminal SASA tag (Fc fusion, part only; not given: SASA tag, not shown: another chain or arm of the molecule; small tags and cut ends) Fc: APEMLGGPSVFIFPPKPKDTLLIARTPEVTCVVVDLDPEDPEVQISWFVDGKQMQTAKTQPREEQFNGTYRVVSVLPIGHQDWLKGKQFTCKVNNKALPSPIERTISKARGQAHQPSVYVLPPSREELSKNTVSLTCLIKDFFPPDIDVEWQSNGQQEPESKYRTTPPQLDEDGSYFLYSKLSVDKSRWQRGDTFICAVMHEALHHHYTQESLSHSPGK",
    "readingUnit": "µM",
    "Kd": 0.247
  },
  {
    "binder": "wild-type canine IgGB Fc (CH2-CH3) with N-terminal SASA tag (Fc fusion, part only; not given: SASA tag, not shown: another chain or arm of the molecule; small tags and cut ends) Fc: APEMLGGPSVFIFPPKPKDTLLIARTPEVTCVVVDLDPEDPEVQISWFVDGKQMQTAKTQPREEQFNGTYRVVSVLPIGHQDWLKGKQFTCKVNNKALPSPIERTISKARGQAHQPSVYVLPPSREELSKNTVSLTCLIKDFFPPDIDVEWQSNGQQEPESKYRTTPPQLDEDGSYFLYSKLSVDKSRWQRGDTFICAVMHEALHNHYTQESLSHSPGK",
    "readingUnit": "µM",
    "Kd": 3.15
  },
  {
    "binder": "canine IgGB Fc (CH2-CH3) A426F with N-terminal SASA tag (Fc fusion, part only; not given: SASA tag, not shown: another chain or arm of the molecule; small tags and cut ends) Fc: APEMLGGPSVFIFPPKPKDTLLIARTPEVTCVVVDLDPEDPEVQISWFVDGKQMQTAKTQPREEQFNGTYRVVSVLPIGHQDWLKGKQFTCKVNNKALPSPIERTISKARGQAHQPSVYVLPPSREELSKNTVSLTCLIKDFFPPDIDVEWQSNGQQEPESKYRTTPPQLDEDGSYFLYSKLSVDKSRWQRGDTFICFVMHEALHNHYTQESLSHSPGK",
    "readingUnit": "µM",
    "Kd": 0.522
  },
  {
    "binder": "canine IgGB Fc (CH2-CH3) YTE variant (L252Y/A254T/T256E) with N-terminal SASA tag (Fc fusion, part only; not given: SASA tag, not shown: another chain or arm of the molecule; small tags and cut ends) Fc: APEMLGGPSVFIFPPKPKDTLYITREPEVTCVVVDLDPEDPEVQISWFVDGKQMQTAKTQPREEQFNGTYRVVSVLPIGHQDWLKGKQFTCKVNNKALPSPIERTISKARGQAHQPSVYVLPPSREELSKNTVSLTCLIKDFFPPDIDVEWQSNGQQEPESKYRTTPPQLDEDGSYFLYSKLSVDKSRWQRGDTFICAVMHEALHNHYTQESLSHSPGK",
    "readingUnit": "µM",
    "Kd": 0.184
  }
]

Request: Would you kindly share the measured Kd for canine IgGB Fc (CH2-CH3) N434W with N-terminal SASA tag (Fc fusion, part only; not given: SASA tag, not shown: another chain or arm of the molecule; small tags and cut ends) Fc: APEMLGGPSVFIFPPKPKDTLLIARTPEVTCVVVDLDPEDPEVQISWFVDGKQMQTAKTQPREEQFNGTYRVVSVLPIGHQDWLKGKQFTCKVNNKALPSPIERTISKARGQAHQPSVYVLPPSREELSKNTVSLTCLIKDFFPPDIDVEWQSNGQQEPESKYRTTPPQLDEDGSYFLYSKLSVDKSRWQRGDTFICAVMHEALHWHYTQESLSHSPGK ?
Result: 0.101
